- Tested on: SR leukemia
- method summary: NCI tumour cell line growth inhibition, 48 h
Quick reference: TGI of the listed items.

compound	TGI
COc1ccc(C2SCC(=O)N2c2ccc(-n3c(-c4ccccc4)nc4ccccc4c3=O)cc2)cc1 (centres undefined)	> 100 µM
CCCc1nn(C)c2c(=O)[nH]c(-c3cc(S(=O)(=O)N4CCN(C)CC4)ccc3OCC)nc12	> 100 µM
C#CC1(O)CCC2[C@@H]3CCc4cc(Oc5nc(F)nc(-c6c(C)c(C(=O)OCC)n7ccccc67)n5)ccc4C3CC[C@@]21C (some centres undefined)	> 100 µM

Attention now shifts to the item below.
Data request, read-out TGI, for `NC(=O)c1cc(N2CC2)c([N+](=O)[O-])cc1[N+](=O)[O-]` > 200 µM

---

- Tested on: NCI-H460 lung
- method summary: NCI tumour cell line growth inhibition, 48 h
Quick reference: TGI of the listed items.

compound	reading
COC1OC2COC1(OCc1ccccc1)C1OC(C)(C)OC21 (stereo not given)	> 100 µM

Data request, read-out TGI, for `CC(C)(C)c1ccc2c(c1)OP1(Oc3c(Cl)cc(Cl)c4cccnc34)(O2)Oc2ccc(C(C)(C)C)cc2O1` 16.2 µM

Let us now turn to `COc1c2c(c3c(c1OC)c(=O)c1ccccc1n3C)OCO2` > 100 µM

Let us now turn to `NC(=S)N/N=C/c1ccc(OC(=O)COc2cc(Cl)c(Cl)cc2Cl)cn1` > 100 µM

Let us now turn to `Nc1ncnc2c1ncn2[C@H]1C=C[C@@H](NO)C1` > 100 µM

---

- Tested on: UACC-257 melanoma
- method summary: NCI tumour cell line growth inhibition, 48 h
Quick reference: TGI of the listed items.
Use µM as the unit, but write only the number.

Consider the worked cases shown below.
compound	TGI, µM
COc1cc(CCC[P+](c2ccccc2)(c2ccccc2)c2ccccc2)c(OC)c2c1OCO2	6.44
C(=N\Nc1ncc(-c2cc3cc4c(cc3o2)OCO4)s1)/c1ccco1	23.2
CCn1c(SCC(=O)N/N=C2\SCC(=O)N2c2ccc(C)cc2)nc2ccccc2c1=O	35.3
O=C(OC1=CCN(Br)C1=O)C1=C(O)C(=O)N(Br)C1	87.6

Data request, read-out TGI, for `CC(C)(C)c1cc(/C=C(\C#N)C2=NCCO2)cc(C(C)(C)C)c1O` 7.89

Let us now turn to CC1OC(OC2C(O)COC(OC3C(C)OC(OC4C(OC(=O)[C@]56CCC(C)(C)C[C@@H]5C5=CCC7[C@@]8(C)C[C@H](O)[C@H](OC9OC(CO)C(O)C(O)C9O)[C@@](C)(CO)[C@@H]8CC[C@@]7(C)[C@]5(C)CC6)OCC(O)C4O)C(O)C3O)C2O)C(O)C(O)C1O (some centres undefined) 37

Let us now turn to `CO/C=C(/C(=O)OC)[C@@H]1C[C@@H]1c1ccc2ccccc2c1` 71.9

Let us now turn to `COc1cc2nc(Nc3cccc(Cl)c3)nc(N)c2cc1OC` 4.48

---

Quick reference: TGI of the listed items.
- Test system: UACC-62 melanoma
- method summary: NCI tumour cell line growth inhibition, 48 h
Use µM as the unit, but write only the number.

compound	measured property	reading
COc1cc(-n2ccnc2-c2ccc3ccccc3c2)cc(OC)c1OC	TGI	15.4

Data request, read-out TGI, for O=C1C2CCN(CC2)C1CN1CCOCC1 (centres undefined) 30.9

---

- Tested on: HCT-15 colon
- method summary: NCI tumour cell line growth inhibition, 48 h
measured property: TGI

molecule	tgt	TGI
O=C1c2c(c(=O)[nH]c3ccccc23)[C@H](c2ccccc2)[C@@H]2CCCN12	HCT-15 colon	> 100 µM
COc1cc(CCC[P+](c2ccccc2)(c2ccccc2)c2ccccc2)c(OC)c2c1OCO2	HCT-15 colon	> 100 µM
NC(=O)c1cc(N2CC2)c([N+](=O)[O-])cc1[N+](=O)[O-]	HCT-15 colon	> 200 µM
COc1ccc(NC(=O)Oc2ccc3c(C)cc(=O)oc3c2)c(OC)c1 (tested in a mixture with another compound)	HCT-15 colon	> 100 µM
Cc1ccc(S(=O)(=O)ON2C(=O)c3cccc4cc([N+](=O)[O-])cc(c34)C2=O)cc1	HCT-15 colon	> 100 µM
Cc1ccc2c(C(C[N+](=O)[O-])c3ccccc3)c(-c3ccccc3)[nH]c2c1 (stereo not given)	HCT-15 colon	> 95 µM
CCC[CH2][Sn](=[O])[CH2]CCC	HCT-15 colon	> 50 µM
CC1=CCC2CC1C(C(=O)c1c[nH]c3ccccc13)=NC2(C)C (stereo not given)	HCT-15 colon	> 100 µM

Data request, read-out TGI, for `O=C(O)c1cccc(S(=O)(=O)NCCO)c1` > 100 µM

Let us now turn to CC(=O)OC12C(C)=C(C)C(=O)N1c1ccccc1N2C(C)=O (stereo not given) > 100 µM

---

- Test system: RPMI-8226 leukemia
- method summary: NCI tumour cell line growth inhibition, 48 h
measured property: TGI

compound	reading
c1ccc(SC(Sc2ccccc2)=C2CCC2)cc1	> 100 µM

Data request, read-out TGI, for COc1ccc2c(c1)CCC1C2CC[C@@]2(C)C1CC[C@@H]2NC(=O)Cc1ccc(O)c(O)c1 (stereo partly specified) > 100 µM

Let us now turn to `COc1ccc(/[N+]([O-])=C/c2ccc(OC(=S)S)c(OC)c2)cc1` > 100 µM

Let us now turn to `Cc1ncn(-c2ccccc2O)c1C` > 100 µM

Let us now turn to CC1(C)Oc2ccc3ccc(=O)oc3c2C(O)C1O (stereo unspecified) 97.9 µM

Let us now turn to COc1ccc(/C=C2\N=C(N3CCCC(CO)C3)NC2=O)cc1 (stereo unspecified) > 100 µM

---

Quick reference: TGI of the listed items.
- Tested on: HCC-2998 colon
- method summary: NCI tumour cell line growth inhibition, 48 h

compound	tgt	TGI
COc1ccc2c(c1)c1c3c(ccc4ncn2c43)N(CCO)CCN=1	HCC-2998 colon	0.369 µM
COC(=O)c1ccc(NCc2cc(OC)ccc2OC)cc1	HCC-2998 colon	> 100 µM
CC(=O)OC12C(C)=C(C)C(=O)N1c1ccccc1N2C(C)=O (centres undefined)	HCC-2998 colon	> 100 µM
O=C1c2ccccc2C(=O)N1CCc1ncc(-c2ccccc2)[nH]1	HCC-2998 colon	> 100 µM
O=C1c2ccccc2N(O)C1(c1ccccc1)C1CCCC=C1N1CCOCC1 (centres undefined)	HCC-2998 colon	> 100 µM

Data request, read-out TGI, for `C#C[C@]1(O)CC[C@H]2[C@@H]3CCC4=C/C(=N\OCCN5CCCCC5)CC[C@]4(C)[C@H]3CC[C@@]21C` 35.2 µM

Let us now turn to `CC1=C([Te]c2ccccc2)C(=O)c2ccccc2C1=O` 1.55 µM

---

- Test system: DU-145 prostate
- method summary: NCI tumour cell line growth inhibition, 48 h; in the data active = GI50 below about 0.43 µM; inactive = the rest
Outcome field: choose from active, inactive

Past entries and their recorded results:
compound	category
Cc1ccc2c(C(C[N+](=O)[O-])c3ccccc3)c(-c3ccccc3)[nH]c2c1 (stereo unspecified)	inactive
Cc1c(Cn2c(C)nc3c(C(=O)O)cc(N4CCOCC4)cc32)cccc1C(F)(F)F	inactive
COc1ccc(-c2ncnc3c2ncn3CC#CCCl)cc1	inactive
CCOC(=O)c1[nH]c2cc(Cl)ccc2c1[C@@H](C(=O)NC(C)(C)C)N(CC)C(=O)CCCCC#Cc1cccc2c1CN(C1CCC(=O)NC1=O)C2=O (stereo partly specified)	inactive
Cc1cc2c(F)c(Oc3ncnc(Nc4ccc(N5C[C@@H](C)N[C@@H](C)C5)cc4)c3C#N)cc(F)c2[nH]1	inactive
C=C(C)[C@@H]1CC[C@]2(CO)CC[C@]3(C)[C@H](CC[C@@H]4[C@@]5(C)CCCNC(C)(C)[C@@H]5CC[C@]43C)[C@@H]12	inactive

What classification did `CC1=C([Te]c2ccccc2)C(=O)c2ccccc2C1=O` end up with in this test? active

Let us now turn to `COc1cc2nc(Nc3cccc(Cl)c3)nc(N)c2cc1OC` inactive

Let us now turn to `COc1cc(-c2nn(-c3cccc(NC(=O)Nc4ccc(Cl)c(C(F)(F)F)c4)c3)cc2-c2ccncc2)ccc1Cl` inactive

Let us now turn to `O=S(=O)(N=C1C(Cl)=C(Cl)C(=NS(=O)(=O)c2ccccc2)C(Cl)=C1Cl)c1ccccc1` inactive

Let us now turn to `COc1cc(-n2ccnc2-c2ccc3ccccc3c2)cc(OC)c1OC` active

---

Quick reference: TGI of the listed items.
- Tested on: CAKI-1 renal
- method summary: NCI tumour cell line growth inhibition, 48 h

Consider the worked cases shown below.
molecule	tgt	TGI
COC(=O)c1cc2c(c(C(=O)OC)c1)CCC2	CAKI-1 renal	> 100 µM
Cc1ccc(OCC2CO2)c(Br)c1 (stereo unspecified)	CAKI-1 renal	> 100 µM
COc1cc2nc(N3CCCN(C)CC3)nc(NC3CCN(Cc4ccccc4)CC3)c2cc1OC	CAKI-1 renal	3.71 µM
CC(=O)Nc1nc(C)c(S(=O)(=O)NC(=O)NC2NC(=O)NC2=O)s1 (stereo unspecified)	CAKI-1 renal	> 100 µM

Data request, read-out TGI, for CCOC(=O)C12CCC(=O)N1N(C)c1ncccc1N2 (stereo unspecified) > 100 µM

Let us now turn to CC(NC1=NCCO1)c1ccccc1Cl (stereo unspecified) > 100 µM
